Origin of the recorded values: PubChem BioAssay AID1347156

# Test: DAPI mCherry counterscreen qHTS for Zika virus inhibitors; further: nearly all actives have a fitted effect of over 55% in size
# Experimental Parameters: Vero cells, DAPI nuclear count cytotoxicity, imaging 48-72 h, infected with Zika reporter virus, MOI 1; series mostly up to 32.6 µM
Results filed as inconclusive are left out. Active and inactive are the calls of the source. The call rests on the fitted dose curve; in most records, active means well fitted cell-killing curve with a large enough effect; inconclusive means small, poorly fitted or top-dose-only effect; inactive means flat fitted curve, though single readings scatter.
Allowed answers: 1 = active, -1 = inactive

Worked examples, 8 compounds total:
Compound: Cc1c(NS(=O)(=O)c2ccccc2)cc(C(C)C)c(O)c1S(=O)(=O)c1ccc(Cl)cc1
Discrete Label: 1

Compound: O=S(=O)(O)c1cc(O)c2c(N=Nc3ccc(Nc4ccccc4)c4c(S(=O)(=O)O)cccc34)cc(S(=O)(=O)O)cc2c1
Discrete Label: -1

Compound: CC(C)(Sc1ccc(CCN(CCCCC2CCCCC2)C(=O)NC2CCCCC2)cc1)C(=O)O
Discrete Label: 1

Compound: CCOc1ccc(-c2cc(NC(=O)c3c(F)cccc3F)c(C(=O)O)s2)cc1
Discrete Label: 1

Compound: COc1ccc(Br)cc1S(=O)(=O)NC(=O)/C=C/c1ccccc1Cc1ccc2ccccc2c1
Discrete Label: 1

Compound: Cc1cc(C(C#N)c2ccc(Cl)cc2)c(Cl)cc1NC(=O)c1cc(I)cc(I)c1O (centres undefined)
Discrete Label: 1

Compound: N#Cc1c(O)c2c(-c3ccc(-c4ccccc4O)cc3)csc2[nH]c1=O
Discrete Label: -1

Compound: O=c1cc(-c2ccccc2)oc2cc(O)c(O)c(O)c12
Discrete Label: -1

Kindly provide the recorded test outcome for the following compound: `CCOc1ccc(C(=O)Nc2cccc(C(=O)OCc3cc(=O)n4nc(C5CC5)sc4n3)c2)cc1` 1
